Tested on: HL-60(TB) leukemia
Experiment: NCI-60 one-dose screen, 48 h (100 = growth as untreated, 0 = no growth, -100 = all killed)
Conditions: 10 µM unless noted
About 83,000 compounds went through this panel and 20% of them were active in at least one assay; those are over-represented in the sample as a whole.
param class (str): category from growth; see ranges Low: < 20%; Mid: ≥ 20% and < 90%; High: ≥ 90%

Below, 3 molecules whose answers are already recorded.
{"columns": ["molecule", "group"],
 "data": [
  ["CCOC(=O)Cn1c(=O)c2c(c3ccccc3n2C)n2nnc(-c3ccccc3)c12", "High"],
  ["O=C1NC(=O)c2cc([N+](=O)[O-])cc3cccc1c23", "High"],
  ["C#C[C@H](O)/C=C/CCCCCCC#C[C@H](O)CC[C@@H](O)C#CCCCCCC/C=C/[C@@H](O)C#C", "Low"]
]}

*Q* Category lookup for the molecule "Cc1ccc(-c2cc(-c3nnc(SCC(=O)c4ccccc4)o3)c3ccccc3n2)cc1"
*A* High

*Q* Category lookup for the molecule "c1csc(-c2nc(-c3cc4ccccc4c(N4CCOCC4)n3)cs2)c1"
*A* High

*Q* Category lookup for the molecule "COc1cc(-c2ccc(N=Nc3c(O)c(C(=O)Nc4ccccc4OC)cc4ccccc34)c(OC)c2)ccc1N=Nc1c(O)c(C(=O)Nc2ccccc2OC)cc2ccccc12"
*A* Mid

*Q* Category lookup for the molecule "COC(=O)c1ccc2c(c1)c1c(C)c3cnccc3c(C)c1n2C"
*A* Low

*Q* Category lookup for the molecule COc1cc(C2C=C(c3ccc(C)cc3)Nc3nc(SC)[nH]c(=O)c32)ccc1Oc1ccnc2cc(Cl)ccc12 (stereo not given)
*A* High
